- System tested: M5 muscarinic receptor (Homo sapiens, UniProt P08912)
- Sequence (P08912 whole entry): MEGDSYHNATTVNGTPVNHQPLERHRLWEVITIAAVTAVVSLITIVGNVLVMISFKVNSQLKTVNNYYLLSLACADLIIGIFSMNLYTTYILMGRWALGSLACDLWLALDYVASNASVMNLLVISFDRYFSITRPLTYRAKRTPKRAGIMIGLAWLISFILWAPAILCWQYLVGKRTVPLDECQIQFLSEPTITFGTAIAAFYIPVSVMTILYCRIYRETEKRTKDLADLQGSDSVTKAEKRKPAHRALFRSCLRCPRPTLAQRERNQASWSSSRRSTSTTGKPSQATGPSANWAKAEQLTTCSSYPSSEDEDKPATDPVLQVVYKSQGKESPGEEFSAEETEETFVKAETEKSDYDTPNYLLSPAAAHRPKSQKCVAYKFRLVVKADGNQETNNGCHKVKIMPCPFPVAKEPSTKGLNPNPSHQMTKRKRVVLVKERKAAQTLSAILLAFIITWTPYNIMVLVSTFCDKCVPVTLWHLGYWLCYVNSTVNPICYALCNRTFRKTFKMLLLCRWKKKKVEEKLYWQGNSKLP
- Test details: [3H]NMS competition binding, M5 CHO membranes
- Design: host or cells: CHO cells, stably transfected
- Test settings: competition with 1 nM [3H]NMS; read-out: Inhibition constants (Ki) as negative logarithms, M5 (converted)
Please provide measured Ki for the entries that follow.
Numbers only, in µM.

Look over these answered cases.
C1=CCN(Cc2cccs2)CC1.Cl [Compound 6A]	50.1
C[N+]1(Cc2ccc(Br)s2)CC=CCC1.[I-] (stereo not shown) [Compound 7C]	0.977
Cc1ccc(C[N+]2(C)CC=CCC2)s1.[I-] (stereo not shown) [Compound 7B]	3.39
C[N+]1(Cc2cccs2)CC=CCC1.[I-] (stereo not shown) [Compound 7A]	10
Brc1ccc(CN2CC=CCC2)s1.Cl [Compound 6C]	12.9

Go through the items and report each one's Ki.
1. Cc1csc(CN2CC=CCC2)c1.Cl [Compound 6E]
2. Cc1ccc(CN2CC=CCC2)s1.Cl [Compound 6B]

1: 31.6; 2: 24

The measured values listed here are drawn from patent US11591323B2.
